Assay Procedure: NCI Yeast Anticancer Drug Screen. Data for the sgs1 strain (AID 173)
Measurement Setup: S. cerevisiae sgs1 mutant, at 33.0 µM
This is part of a sample that, as a whole, favours compounds with a hit. Of some 79,000 tested, about 15% had one in any assay. Active and inactive are the calls of the source. Cut-off read from the data, not from the text of the source: active = growth inhibition above about 70%; inactive = the rest.
Outcomes you can answer with include only these: Y for active, N for inactive

- Molecule: "O=C1SS(=O)c2ccccc21 (centres undefined)"
  Class Label: "N"
- Molecule: "CC1(c2ccccc2)O[C@@H]2C[C@H]3[C@@H]4CCC5=CC(=O)C=C[C@]5(C)[C@@]4(F)[C@@H](O)C[C@]3(C)[C@]2(C(=O)CO)O1 (some centres undefined)"
  Class Label: "N"
- Molecule: "Cn1c(-c2ccc(/C=N\\N3CCN(/N=C/c4ccc(-c5c[n+]6ccsc6n5C)cc4)CC3)cc2)c[n+]2ccsc12"
  Class Label: "N"
- Molecule: "C=CCNC1=C2C[C@@H](C)C[C@H](OC)[C@H](O)[C@@H](C)/C=C(\\C)[C@H](OC(N)=O)[C@@H](OC)/C=C\\C=C(/C)C(=O)NC(=CC1=O)C2=O"
  Class Label: "Y"
- Molecule: "CC(=O)Oc1ccc2c(c1)Cc1cc(N3C(=O)C=CC3=O)ccc1-2"
  Class Label: "Y"
- Molecule: "O=c1[nH]c2c([N+](=O)[O-])cccc2c2ccccc12"
  Class Label: "N"
- Molecule: "CCOP(=O)(OCC)/C(C#N)=C/c1ccc(-c2ccc(F)cc2F)o1"
  Class Label: "N"
- Molecule: "O=Cc1ccccc1C=O"
  Class Label: "N"

Below: the item to evaluate.
input: Please state the recorded outcome for this molecule: O=C(O)/C=C\C(=O)Nc1ccc2c(c1)Cc1cc(Cl)ccc1-2
output: N
